Can you tell me IC50 for the items I'm about to list?
# SUBJECT_OF_TEST: A*0202 (Homo sapiens, UniProt P04439, D140Y/D185E/D98H/E176V/E277Q/G131W/G231S/I119L/I121R/I166T/I218V/L180W/L300P/L318F/N151K/N90K/P208A/P217A/Q67R/Q86G/Q94H/R138H/R169H/T345S)
# METHOD: biochemical
# Format: binding
No end group written: not given here.

Given RILQQLLFT [Peptide 1525.13] , state its recorded IC50.
5690 nM

How about this sequence: RLTVTTITV [Peptide 9013.0067]
22 nM

How about this sequence: LQLSNDNRV [Peptide 9013.0072]
1700 nM

How about this sequence: NVAEGKEVV [Peptide 9013.0015]
1310 nM

How about this sequence: ITIGVLVGV [Peptide 9013.0109]
43 nM

How about this sequence: FLQSTQELFI [Peptide 9013.0179]
3.7 nM

How about this sequence: GLFQQSTQEL [Peptide 9013.0176]
6.2 nM

How about this sequence: YLYYRPGVNL [Peptide 9013.0209]
2.2 nM

How about this sequence: IIYPNASLV [Peptide 9013.0029]
24 nM

How about this sequence: FQGSVISFV [Peptide 1578.38]
1.8 nM

How about this sequence: LTFWNPPTTV [Peptide 9013.0122]
38 nM

How about this sequence: ALNTTYLWWV [Peptide 9013.0217]
48 nM

How about this sequence: ALFNVQEGV [Peptide 1578.41]
2 nM

How about this sequence: RLENAILFTV [Peptide 1593.60]
24 nM
